# condition info: 318.15 K; 100 kPa; Liquid; Vibrating tube method
This section presents molecules with their documented mass density values.
Unit kg/m3 implied. Number only.

# annotated cases, reported mass density shown
> print(dat)
                                   molecule  endpoint.result
1                                      CCCO           783.27
2  CCCC[N+]1(C)CCCC1.O=S(=O)([N-]S(=O)(=O)C(F)(F)F)C(F)(F)F          1376.66
3  CC[S+](CC)CC.O=S(=O)([N-]S(=O)(=O)C(F)(F)F)C(F)(F)F [triethylsulfonium bis((trifluoromethyl)sulfonyl)imide]          1440.74
4  C=CCn1cc[n+](C)c1.O=S(=O)([N-]S(=O)(=O)C(F)(F)F)C(F)(F)F          1479.44

We next turn to a different molecule, shown below.
**Query** Quick one: mass density for O=S(=O)([N-]S(=O)(=O)C(F)(F)F)C(F)(F)F.On1cc[n+](O)c1 [1,3-dihydroxyimidazolium bis(trifluoromethylsulfonyl)imide] ?
**Result** 1716.97
